# Tested on: PIK3CB
# experimentalSetup: concentration: 1 μM,replicates: in singlicate; n = 1;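 note: KINOMEscan kinase panel screen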
measuredAttribute: %Inh

1. COc1ccc(C[C@@H](CN)NC(=O)c2cc(Br)c(-c3ccnc4[nH]ccc34)s2)cc1.Cl.Cl
52%
2. Cl.Oc1cc(-c2nc(-c3ccccc3)[nH]c2-c2ccncc2)ccc1Cl
14%
3. CCn1c(-c2nonc2N)nc2c(C#CC(C)(C)O)nc(OCCN)cc21.Cl.Cl
0%
4. C[C@H]1Oc2cc(cnc2N)-c2c(nn(C)c2C#N)CN(C)C(=O)c2ccc(F)cc21
0%
5. CC(C)N1C(=O)Cc2cc(Nc3ncc(C(F)(F)F)c(NCc4cccc(S(C)(=O)=O)c4)n3)ccc21
29%
6. CN(C)CCOc1ccc(-c2cc(-c3c[nH]nc3-c3ccccn3)ccn2)cc1
11%
7. Cc1occc1-c1nc(N)c(OC[C@@H](N)Cc2c[nH]c3ccccc23)cc1-c1cc2c(C)n[nH]c2cn1
0%
8. CN(C)CC(O)COc1ccc(Nc2nccc(-c3cnn4nc(N5CCOCC5)ccc34)n2)cc1 (centres unmarked)
35%
9. Cc1cc2cn[nH]c2cc1-c1cccc2c(N)c(C(N)=O)nnc12
0%
10. C[C@@H]1CCN(C(=O)CC#N)C[C@@H]1N(C)c1ncnc2[nH]ccc12
0%
11. Cl.Cl.Nc1nc(-c2ccc3c(N)n[nH]c3c2)cc(N2CCCC(NC(=O)c3ccccc3)C2)n1 (centres unmarked)
0%
12. Cc1cc(C(=O)Nc2ccc(Oc3ccc4nc(NC(=O)C5CC5)cn4n3)cc2)nn1-c1ccccc1
0%
13. Cc1ccc2c(-c3ccncc3)c(-c3ccc(F)cc3)nn2c1.Cl
25%
14. CNC(=O)c1ccccc1Sc1ccc2c(/C=C/c3ccccn3)n[nH]c2c1
0%

* * *

# Test system: PIP5K1C
# experimentalSetup: concentration: 1 μM,replicates: in singlicate; n = 1
Quick reference: %Inh of the listed items.
measuredAttribute: %Inh (%)

1) Cc1n[nH]c2ccc(-c3cc(OC[C@@H](N)Cc4ccccc4)cnc3-c3ccoc3)cc12.O=C(O)C(F)(F)F.O=C(O)C(F)(F)F
38
2) Cc1occc1-c1nc(N)c(OC[C@@H](N)Cc2c[nH]c3ccccc23)cc1-c1cc2c(C)n[nH]c2cn1
42
3) CC(C)Nc1cc(-c2ccc3c(N)n[nH]c3c2)nc(N)n1
28
4) C[C@@H](Oc1cc(-c2cnn(C3CCNCC3)c2)cnc1N)c1c(Cl)ccc(F)c1Cl
0
5) C[C@H]1Oc2cc(cnc2N)-c2c(nn(C)c2C#N)CN(C)C(=O)c2ccc(F)cc21
44
6) O=C(NCCNc1ccnc(NCc2ccc(F)cc2)n1)c1cc2ccccc2s1
100
7) CN(C)CCOc1ccc(-c2cc(-c3c[nH]nc3-c3ccccn3)ccn2)cc1
16
8) Cc1cc(C(=O)Nc2ccc(Oc3ccc4nc(NC(=O)C5CC5)cn4n3)cc2)nn1-c1ccccc1
27

* * *

# Test system: MST1R
# experimentalSetup: concentration: 1 μM,replicates: in singlicate; n = 1
Output: class label from %Inh. Mapping: Low (below 4%), Mid (4% to below 30%), High (30% or more)

1. CN(C)CCOc1ccc(-c2cc(-c3c[nH]nc3-c3ccccn3)ccn2)cc1
Low
2. CC(C)Nc1cc(-c2ccc3c(N)n[nH]c3c2)nc(N)n1
Mid
3. Cc1n[nH]c2ccc(-c3cc(OC[C@@H](N)Cc4ccccc4)cnc3-c3ccoc3)cc12.O=C(O)C(F)(F)F.O=C(O)C(F)(F)F
High
4. Cl.Cl.NC[C@H](Cc1ccc(C(F)(F)F)cc1)NC(=O)c1cc(Br)c(-c2ccnc3[nH]ccc23)s1
High
5. Cc1ccc2c(-c3ccncc3)c(-c3ccc(F)cc3)nn2c1.Cl
High
6. C=CC(=O)Nc1cc2c(Nc3ccc(F)c(Cl)c3)ncnc2cc1OCCCN1CCOCC1
Mid
7. CC(C)N1C(=O)Cc2cc(Nc3ncc(C(F)(F)F)c(NCc4cccc(S(C)(=O)=O)c4)n3)ccc21
Low
8. Cc1occc1-c1nc(N)c(OC[C@@H](N)Cc2c[nH]c3ccccc23)cc1-c1cc2c(C)n[nH]c2cn1
Low
9. CCN(CC)CCCCNc1ncc2cc(-c3c(Cl)cccc3Cl)c(NC(=O)NC(C)(C)C)nc2n1
Mid
10. Nc1nc(Nc2ccccc2)cc(-c2ccc3c(N)n[nH]c3c2)n1
Low
11. CCn1c(-c2nonc2N)nc2c(C#CC(C)(C)O)nc(OCCN)cc21.Cl.Cl
High
12. Cc1cc2cn[nH]c2cc1-c1cccc2c(N)c(C(N)=O)nnc12
Mid
13. CNC(=O)c1ccccc1Sc1ccc2c(/C=C/c3ccccn3)n[nH]c2c1
Mid
14. CN(C)CC(O)COc1ccc(Nc2nccc(-c3cnn4nc(N5CCOCC5)ccc34)n2)cc1 (centres unmarked)
Mid
15. C[C@@H]1CCN(C(=O)CC#N)C[C@@H]1N(C)c1ncnc2[nH]ccc12
Low
16. O=C(NCCCN1CCOC1=O)c1cnc(NCc2cc(Cl)ccc2Cl)nc1NC1CCCC1
Mid

* * *

# System: CSNK2A1
# experimentalSetup: concentration: 1 μM,replicates: in singlicate; n = 1
measuredAttribute: %Inh (%)

1) O=C(NCCNc1ccnc(NCc2ccc(F)cc2)n1)c1cc2ccccc2s1
0
2) CNC(=O)c1ccccc1Sc1ccc2c(/C=C/c3ccccn3)n[nH]c2c1
0
3) Cc1occc1-c1nc(N)c(OC[C@@H](N)Cc2c[nH]c3ccccc23)cc1-c1cc2c(C)n[nH]c2cn1
76
4) CCN(CC)CCOc1ccc(Nc2ncc3cc(-c4c(Cl)cccc4Cl)c(=O)n(C)c3n2)cc1
6
5) Cl.Oc1cc(-c2nc(-c3ccccc3)[nH]c2-c2ccncc2)ccc1Cl
11
6) CCN(CC)CCCCNc1ncc2cc(-c3c(Cl)cccc3Cl)c(NC(=O)NC(C)(C)C)nc2n1
1
7) COc1ccc(C[C@@H](CN)NC(=O)c2cc(Br)c(-c3ccnc4[nH]ccc34)s2)cc1.Cl.Cl
57
8) C=CC(=O)Nc1cc2c(Nc3ccc(F)c(Cl)c3)ncnc2cc1OCCCN1CCOCC1
27
9) C[C@H]1Oc2cc(cnc2N)-c2c(nn(C)c2C#N)CN(C)C(=O)c2ccc(F)cc21
0
10) CC(C)N1C(=O)Cc2cc(Nc3ncc(C(F)(F)F)c(NCc4cccc(S(C)(=O)=O)c4)n3)ccc21
55
11) NC(=O)c1cc(-c2ccccc2)cc2c(C3CCNCC3)c[nH]c12
31
12) CC(C)Nc1cc(-c2ccc3c(N)n[nH]c3c2)nc(N)n1
13
13) Cc1cc2cn[nH]c2cc1-c1cccc2c(N)c(C(N)=O)nnc12
19
14) Cc1ccc2c(-c3ccncc3)c(-c3ccc(F)cc3)nn2c1.Cl
0
15) C[C@@H](Oc1cc(-c2cnn(C3CCNCC3)c2)cnc1N)c1c(Cl)ccc(F)c1Cl
18
16) Cc1ccc(-n2nc(C(C)(C)C)cc2NC(=O)Nc2ccc(OCCN3CCOCC3)c3ccccc23)cc1
0

* * *

// %Inh lookup, one value per entry
# Test system: ZAP70
# experimentalSetup: concentration: 1 μM,replicates: in singlicate; n = 1
measuredAttribute: %Inh (%)

1) Cl.Oc1cc(-c2nc(-c3ccccc3)[nH]c2-c2ccncc2)ccc1Cl
15
2) Cc1cc(C(=O)Nc2ccc(Oc3ccc4nc(NC(=O)C5CC5)cn4n3)cc2)nn1-c1ccccc1
0
3) Cl.Cl.NC[C@H](CC1CCCCC1)NC(=O)c1cc(Br)c(-c2ccnc3[nH]ccc23)s1
0
4) CN(C)CC(O)COc1ccc(Nc2nccc(-c3cnn4nc(N5CCOCC5)ccc34)n2)cc1 (stereo not shown)
36

* * *

# Tested on: ULK3
# experimentalSetup: concentration: 1 μM,replicates: in singlicate; n = 1
This section presents compounds with their documented %Inh values.
measuredAttribute: %Inh (%)

1) Cc1ccc(-n2nc(C(C)(C)C)cc2NC(=O)Nc2ccc(OCCN3CCOCC3)c3ccccc23)cc1
0
2) Nc1nc(Nc2ccccc2)cc(-c2ccc3c(N)n[nH]c3c2)n1
16
3) COc1ccc(C[C@@H](CN)NC(=O)c2cc(Br)c(-c3ccnc4[nH]ccc34)s2)cc1.Cl.Cl
12
4) CN(C)CCOc1ccc(-c2cc(-c3c[nH]nc3-c3ccccn3)ccn2)cc1
4
5) NC(=O)c1cc(-c2ccccc2)cc2c(C3CCNCC3)c[nH]c12
18
6) Cl.Cl.NC[C@H](Cc1ccc(C(F)(F)F)cc1)NC(=O)c1cc(Br)c(-c2ccnc3[nH]ccc23)s1
6
7) Cl.Cl.NC[C@H](CC1CCCCC1)NC(=O)c1cc(Br)c(-c2ccnc3[nH]ccc23)s1
10
8) Cc1n[nH]c2ccc(-c3cc(OC[C@@H](N)Cc4ccccc4)cnc3-c3ccoc3)cc12.O=C(O)C(F)(F)F.O=C(O)C(F)(F)F
22
9) Cc1cc2cn[nH]c2cc1-c1cccc2c(N)c(C(N)=O)nnc12
50
10) CCN(CC)CCCCNc1ncc2cc(-c3c(Cl)cccc3Cl)c(NC(=O)NC(C)(C)C)nc2n1
0
11) C[C@@H]1CCN(C(=O)CC#N)C[C@@H]1N(C)c1ncnc2[nH]ccc12
0
12) Cl.Cl.Nc1nc(-c2ccc3c(N)n[nH]c3c2)cc(N2CCCC(NC(=O)c3ccccc3)C2)n1 (stereo not drawn)
36
13) O=C(NCCCN1CCOC1=O)c1cnc(NCc2cc(Cl)ccc2Cl)nc1NC1CCCC1
0
14) C[C@@H](Oc1cc(-c2cnn(C3CCNCC3)c2)cnc1N)c1c(Cl)ccc(F)c1Cl
32
15) O=C(NCCNc1ccnc(NCc2ccc(F)cc2)n1)c1cc2ccccc2s1
0
16) Cc1ccc2c(-c3ccncc3)c(-c3ccc(F)cc3)nn2c1.Cl
23
17) Cc1cc(C(=O)Nc2ccc(Oc3ccc4nc(NC(=O)C5CC5)cn4n3)cc2)nn1-c1ccccc1
0
18) C[C@H]1Oc2cc(cnc2N)-c2c(nn(C)c2C#N)CN(C)C(=O)c2ccc(F)cc21
0
